Value source: ChEMBL document CHEMBL4428061

# run-description: Inhibition of cytosolic eukaryotic translation in rabbit reticulocyte S30 extract measured after 60 mins by coupled transcription/translation-based luciferase reporter gene assay
# Parameters: species or system Oryctolagus cuniculus
Friendly reminder: IC50 below 100 µM is Yes, at or above is No.

Past entries and their recorded results:
structure-smiles | group-label
NCC[C@H](O)C(=O)N[C@@H]1C[C@H](N)[C@@H](O[C@H]2O[C@H](CN)[C@@H](O)[C@H](O)[C@H]2O)[C@H](O[C@@H]2O[C@H](CO)[C@@H](O)[C@H]2O)[C@H]1O[C@H]1O[C@H](CO)[C@@H](O)[C@H](N)[C@H]1O | No
NC[C@H]1O[C@H](O[C@H]2[C@H](O)[C@@H](O)[C@H](N)C[C@@H]2N)[C@H](N)C[C@@H]1O | No
NC[C@H]1O[C@H](O[C@H]2[C@H](O)[C@@H](O[C@H]3O[C@H](CO)[C@@H](O)[C@H](N)[C@H]3O)[C@H](N)C[C@@H]2N)[C@H](N)C[C@@H]1O | Yes
NC[C@H]1O[C@H](O[C@H]2[C@H](O)[C@@H](O[C@H]3O[C@H](CO)[C@@H](O)[C@H](N)[C@H]3O)[C@H](N)C[C@@H]2N)[C@H](O)[C@@H](O)[C@@H]1O | No
NC[C@H]1O[C@H](O[C@H]2[C@H](O)[C@@H](O[C@H]3O[C@H](CO)[C@@H](O)[C@H](N)[C@H]3O)[C@H](N)C[C@@H]2N)[C@H](N)[C@@H](O)[C@@H]1O | Yes

Please find the next compound below.
Lab note: IC50 threshold 100 µM. Does this compound come in strictly under it? NC[C@H]1O[C@H](O[C@H]2[C@H](O[C@@H]3O[C@H](CO)[C@@H](O)[C@H]3O)[C@@H](O)[C@H](N)C[C@@H]2N)[C@H](N)C[C@@H]1O
No
